# SYSTEM_NAME: T1, human EphA2 (Homo sapiens, UniProt P29317)
# T1 construct: a protein of the extracellular region of each human Eph receptor fused with the SEAP protein and the His tag; made in house; host or cells: Expi293F cells (culture supernatant)
# MEASUREMENT_NOTES: Selectivity ELISA of humanized antibodies for human Eph receptor
# Format: binding
# CONDITION_SET: coated protein 1 nM
# From the text: According to the method described in Example 7, a DNA sequence encoding the signal sequence and the extracellular region of each human Eph receptor (EphA1, EphA2, EphA3, EphA4, EphA5, EphA6, EphA7, EphA8, EphA10, EphB1, EphB2, EphB3, EphB4, and EphB6) was amplified by RT-PCR using tissue-derived total RNA and cloned into a pENTR1A vector (Invitrogen/Life Technologies) having a DNA sequence encoding SEAP protein and histidine tag. […]
MEASURED_PROPERTY: hEphA2-SEAP-: absorbance at 450 nm, percentage with respect to hEphA4-SEAP-His as 100%
Please state the number and follow it with the unit.

// lookup hEphA2-SEAP-: absorbance at 450 nm, percentage with respect to hEphA4-SEAP-His as 100% for 93 (antibody, V domains shown, constant regions without entry; synthetic humanized antibody light chain variable region sequence; synthetic humanized antibody heavy chain variable region sequence) VL: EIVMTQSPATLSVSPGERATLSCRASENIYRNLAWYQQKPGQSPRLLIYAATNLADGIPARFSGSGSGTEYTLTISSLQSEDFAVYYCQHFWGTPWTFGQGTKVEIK VH: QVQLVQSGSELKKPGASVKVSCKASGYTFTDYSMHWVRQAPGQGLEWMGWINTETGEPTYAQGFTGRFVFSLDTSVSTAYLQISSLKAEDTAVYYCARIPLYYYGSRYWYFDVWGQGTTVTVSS
5.0%
